System: C6
test method notes: Inhibition of cell proliferation of rat C6 cells assessed as cell viability at 100 uM after 72 hrs by sulforhodamine B assay
Type: functional
run conditions: C6, 72 h, read-out: Activity

compound	target entity	viability at 100 µM
COc1c(O)ccc(O)c1-c1cc(=O)c2c(O)cc(O)c(OC)c2o1	C6	57.7%
O=C(O)[C@H]1O[C@@H](Oc2cc3oc(-c4ccccc4)cc(=O)c3c(O)c2O)[C@H](O)[C@@H](O)[C@@H]1O	C6	80.4%
CC(C)=CCC[C@](C)(O[C@@H]1O[C@H](CO[C@@H]2OC[C@H](O)[C@H](O)[C@H]2O)[C@@H](O)[C@H](O)[C@H]1O)[C@H]1CC[C@]2(C)[C@@H]1[C@H](O)C[C@@H]1[C@@]3(C)CC[C@H](O)C(C)(C)[C@@H]3[C@@H](O)C[C@]12C [GINSENOSIDE F3]	C6	93.6%
CC1(C)CC[C@]2(C(=O)O)[C@H](O)C[C@]3(C)C(=CC[C@@H]4[C@@]5(C)CC[C@H](O[C@@H]6O[C@H](CO[C@@H]7OC[C@H](O)[C@H](O)[C@H]7O[C@@H]7OC[C@@H](O)[C@H](O)[C@H]7O)[C@@H](O)[C@H](O)[C@H]6O)C(C)(C)[C@@H]5CC[C@]43C)[C@@H]2C1	C6	86.2%
C[C@@H]1O[C@@H](OC[C@H]2O[C@@H](OC(=O)[C@]34CCC(C)(C)C[C@H]3C3=CC[C@@H]5[C@@]6(C)CC[C@H](O[C@@H]7O[C@H](CO[C@@H]8OC[C@H](O)[C@H](O)[C@H]8O)[C@@H](O)[C@H](O)[C@H]7O)C(C)(C)[C@@H]6CC[C@@]5(C)[C@]3(C)C[C@H]4O)[C@H](O[C@@H]3O[C@@H](C)[C@H](O[C@@H]4OC[C@@H](O)[C@H](O[C@@H]5OC[C@@H](O)[C@H](O)[C@H]5O)[C@H]4O)[C@@H](O)[C@H]3O)[C@@H](O)[C@@H]2O)[C@H](O)[C@H](O)[C@H]1O	C6	63.9%
O=C(/C=C/c1ccc(O)c(O)c1)O[C@H](Cc1ccc(O)c(O)c1)C(=O)O	C6	54.5%
CC1(C)CC[C@]2(C(=O)O)[C@H](O)C[C@]3(C)C(=CC[C@@H]4[C@@]5(C)CC[C@H](O)C(C)(C)[C@@H]5CC[C@]43C)[C@H]2C1	C6	52.3%
CC(C)=CC/C=C(/C)[C@H]1CC[C@]2(C)[C@@H]1[C@H](O)C[C@@H]1[C@@]3(C)CC[C@H](O)C(C)(C)[C@@H]3[C@@H](O)C[C@]12C	C6	75.6%
O=C(/C=C/c1ccc(O)c(O)c1)O[C@H]1[C@H](O)C[C@](O)(C(=O)O)C[C@H]1OC(=O)/C=C/c1ccc(O)c(O)c1	C6	46%
CC(C)=CCC[C@](C)(O[C@@H]1O[C@H](CO[C@@H]2O[C@H](CO)[C@@H](O)[C@H](O)[C@H]2O)[C@@H](O)[C@H](O)[C@H]1O)[C@H]1CC[C@]2(C)[C@@H]1[C@H](O)C[C@@H]1[C@@]3(C)CC[C@H](O[C@@H]4O[C@H](CO)[C@@H](O)[C@H](O)[C@H]4O[C@@H]4O[C@H](CO)[C@@H](O)[C@H](O)[C@H]4O)C(C)(C)[C@@H]3CC[C@]12C [GINSENOSIDE RB1]	C6	79%
CC(C)=CCC[C@](C)(O[C@@H]1O[C@H](CO)[C@@H](O)[C@H](O)[C@H]1O)[C@H]1CC[C@]2(C)[C@@H]1[C@H](O)C[C@@H]1[C@@]3(C)CC[C@H](O[C@@H]4O[C@H](CO)[C@@H](O)[C@H](O)[C@H]4O)C(C)(C)[C@@H]3[C@@H](O)C[C@]12C	C6	65.6%
C/C=C(\C)C(=O)O[C@H]1[C@H](O)[C@]2(CO)[C@H](O)C[C@]3(C)C(=CC[C@@H]4[C@@]5(C)CC[C@H](O[C@@H]6O[C@H](C(=O)O)[C@@H](O[C@@H]7O[C@H](CO)[C@@H](O)[C@H](O)[C@H]7O)[C@H](O)[C@H]6O[C@@H]6O[C@H](CO)[C@@H](O)[C@H](O)[C@H]6O)[C@@](C)(CO)[C@@H]5CC[C@]43C)[C@@H]2CC1(C)C	C6	89.6%
CC(C)=CCC[C@](C)(O[C@@H]1O[C@H](CO)[C@@H](O)[C@H](O)[C@H]1O)[C@H]1CC[C@]2(C)[C@@H]1[C@H](O)C[C@@H]1[C@@]3(C)CC[C@H](O[C@@H]4O[C@H](CO)[C@@H](O)[C@H](O)[C@H]4O[C@@H]4O[C@H](CO)[C@@H](O)[C@H](O)[C@H]4O)C(C)(C)[C@@H]3CC[C@]12C [GINSENOSIDE RD]	C6	102%
CC(C)=CCC[C@](C)(O[C@@H]1O[C@H](CO[C@@H]2OC[C@@H](O)[C@H](O)[C@H]2O)[C@@H](O)[C@H](O)[C@H]1O)[C@H]1CC[C@]2(C)[C@@H]1[C@H](O)C[C@@H]1[C@@]3(C)CC[C@H](O[C@@H]4O[C@H](CO)[C@@H](O)[C@H](O)[C@H]4O[C@@H]4O[C@H](CO)[C@@H](O)[C@H](O)[C@H]4O)C(C)(C)[C@@H]3CC[C@]12C [GINSENOSIDE RB3]	C6	57.8%
